Tested on: webbing clothes moth (Tineola bisselliella)
Assay: Biological Test 14: treated filter paper in cardboard box, percent moribund, fabric damage and persistence; also: key: -: no damage; +: slight damage; ++: heavy damage; +++: severe damage
Assay type: in vivo
Conditions: 36 mg on filter paper; After 3 weeks
quantity name: degree of damage

>  <compound>
Cc1ccc(COC(=O)[C@@H]2[C@H](/C=C(\Cl)C(F)(F)F)C2(C)C)o1 (relative stereo) [Compound (1)]

>  <study target>
webbing clothes moth (Tineola bisselliella)

>  <degree of damage>
-

$$$$
>  <compound>
CCCc1ccc(COC(=O)[C@@H]2[C@H](/C=C(\Cl)C(F)(F)F)C2(C)C)o1 (relative stereo) [(3)]

>  <study target>
webbing clothes moth (Tineola bisselliella)

>  <degree of damage>
-

$$$$
>  <compound>
C#CCc1ccc(COC(=O)C2C(/C=C(\Cl)C(F)(F)F)C2(C)C)o1 (stereo not shown) [C, reference compound]

>  <study target>
webbing clothes moth (Tineola bisselliella)

>  <degree of damage>
+++

$$$$
>  <compound>
CCc1ccc(COC(=O)[C@@H]2[C@H](/C=C(\Cl)C(F)(F)F)C2(C)C)o1 (relative stereo) [(2)]

>  <study target>
webbing clothes moth (Tineola bisselliella)

>  <degree of damage>
-

$$$$
>  <compound>
CC1(C)C(/C=C(\Cl)C(F)(F)F)C1C(=O)OCc1coc(Cc2ccccc2)c1 (stereo not shown) [A, reference compound]

>  <study target>
webbing clothes moth (Tineola bisselliella)

>  <degree of damage>
+++

$$$$
>  <compound>
C=CCc1ccc(COC(=O)[C@@H]2[C@H](/C=C(\Cl)C(F)(F)F)C2(C)C)o1 (relative stereo) [(4)]

>  <study target>
webbing clothes moth (Tineola bisselliella)

>  <degree of damage>
-

$$$$

Alright, here's another compound for you.
Entry CC1(C)C(/C=C(\Cl)C(F)(F)F)C1C(=O)OCc1ccc(C(F)F)o1 (stereo not shown) [B, reference compound] has what degree of damage?
+++
